Values from ChEMBL document CHEMBL3774321

biological target: UniProtKB P49759; assay: Inhibition of recombinant human GST-tagged CLK1 catalytic domain (129 to 484 residues) expressed in Escherichia coli using GRSRSRSRSRSRSRSR as substrate incubated for 15 mins in presence of [gamma-32P]ATP
Sequence (P49759 whole entry, the tested form may be a part): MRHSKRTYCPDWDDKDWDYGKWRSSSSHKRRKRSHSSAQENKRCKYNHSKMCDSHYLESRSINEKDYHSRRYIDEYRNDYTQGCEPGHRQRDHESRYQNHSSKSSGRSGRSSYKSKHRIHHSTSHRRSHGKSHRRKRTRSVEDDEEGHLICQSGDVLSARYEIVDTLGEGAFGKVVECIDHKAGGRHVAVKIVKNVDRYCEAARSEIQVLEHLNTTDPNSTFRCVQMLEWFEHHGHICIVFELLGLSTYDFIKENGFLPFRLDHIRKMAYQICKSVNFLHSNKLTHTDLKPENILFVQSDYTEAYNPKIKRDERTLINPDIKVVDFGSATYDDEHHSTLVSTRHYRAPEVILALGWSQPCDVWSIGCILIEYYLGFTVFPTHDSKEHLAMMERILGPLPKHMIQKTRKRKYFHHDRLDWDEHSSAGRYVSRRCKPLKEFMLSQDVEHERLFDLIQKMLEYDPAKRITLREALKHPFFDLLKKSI
Property measured: IC50 (µM)
Write the answer as a number in µM, unit excluded.

IN: Please provide the recorded IC50 for COc1ccc(/C=C2\CCCOC2=O)cc1 , tested on UniProtKB P49759.
OUT: 7.52

IN: Now this one: O=C1NC(=S)S/C1=C\c1ccc2c(c1)CCO2
OUT: 0.5

IN: Now this one: O=C1NC(=S)S/C1=C\c1ccc2ncsc2c1
OUT: 0.1

IN: Now this one: CC1C/C(=C\c2ccc3ncsc3c2)C(=O)O1 (stereo not drawn)
OUT: 0.17

IN: Now this one: COc1ccc(/C=C2\CC(C)OC2=O)cc1 (stereo not drawn)
OUT: 4.37

IN: Now this one: O=C1NC(=S)N/C1=C\c1ccc2ncsc2c1
OUT: 0.02

IN: Now this one: COc1ccc(/C=C2/SC(=S)NC2=O)cc1
OUT: 5.7

IN: Now this one: O=C1NC(=O)/C(=C/c2ccc3nccnc3c2)S1
OUT: 0.07

IN: Now this one: COc1ccc(/C=C2\NC(=O)NC2=O)cc1
OUT: 10

IN: Now this one: COc1ccc(/C=C2\NC(=O)SC2=O)cc1
OUT: 3.6

IN: Now this one: O=C1OCC/C1=C\c1ccc2c(c1)CCCO2
OUT: 3.9

IN: Now this one: O=C1NC(=S)S/C1=C\c1ccc2ncccc2c1
OUT: 0.2

====

molecular target: Dual specificity tyrosine-phosphorylation-regulated kinase 1B (Homo sapiens, UniProt Q9Y463); test: Inhibition of full length recombinant human GST-tagged DYRK1B expressed in insect cells using KKISGRLSPIMTEQ-NH2 as substrate incubated for 15 mins in presence of [gamma-32P]ATP
Sequence (Q9Y463 whole entry): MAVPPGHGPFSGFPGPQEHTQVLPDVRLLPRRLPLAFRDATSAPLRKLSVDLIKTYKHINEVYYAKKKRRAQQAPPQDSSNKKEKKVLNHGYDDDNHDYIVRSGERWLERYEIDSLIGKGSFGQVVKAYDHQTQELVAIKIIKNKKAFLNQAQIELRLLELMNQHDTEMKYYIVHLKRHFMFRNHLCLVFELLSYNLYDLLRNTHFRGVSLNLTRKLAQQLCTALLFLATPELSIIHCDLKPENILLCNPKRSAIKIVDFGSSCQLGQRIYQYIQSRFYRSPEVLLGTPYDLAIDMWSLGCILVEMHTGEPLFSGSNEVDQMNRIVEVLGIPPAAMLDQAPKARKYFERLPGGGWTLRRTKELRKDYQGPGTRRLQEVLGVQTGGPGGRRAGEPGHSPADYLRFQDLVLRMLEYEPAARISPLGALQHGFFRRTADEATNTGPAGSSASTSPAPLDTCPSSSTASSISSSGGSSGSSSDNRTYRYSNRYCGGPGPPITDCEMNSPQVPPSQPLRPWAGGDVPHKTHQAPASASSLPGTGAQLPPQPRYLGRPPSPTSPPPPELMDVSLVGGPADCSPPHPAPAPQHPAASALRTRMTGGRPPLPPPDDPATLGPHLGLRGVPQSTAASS
Recorded IC50 split into classes low group: < 2 µM; middle group: ≥ 2 µM and < 4 µM; high group: ≥ 4 µM

IN: Assign a bin to CC1C/C(=C\c2ccc3ncsc3c2)C(=O)O1 (centres undefined)
OUT: low group

IN: Now this one: O=C1OCC/C1=C\c1ccc2c(c1)OCO2
OUT: middle group

IN: Now this one: COc1ccc(/C=C2\CC(C)OC2=O)cc1 (centres undefined)
OUT: high group

IN: Now this one: O=C1OCC/C1=C\c1ccc2c(c1)OCCO2
OUT: high group

IN: Now this one: COc1ccc(/C=C2\NC(=O)NC2=O)cc1
OUT: high group

IN: Now this one: O=C1OCC/C1=C\c1ccc2c(c1)CCCO2
OUT: high group

IN: Now this one: O=C1NC(=S)S/C1=C\c1ccc2ncccc2c1
OUT: low group

IN: Now this one: COc1ccc(/C=C2/SC(=S)NC2=O)cc1
OUT: low group

IN: Now this one: COc1ccc(/C=C2\CCCOC2=O)cc1
OUT: high group

IN: Now this one: O=C1OCC/C1=C\c1ccc2c(c1)CCO2
OUT: middle group

IN: Now this one: O=C1OCC/C1=C\c1ccc2ncsc2c1
OUT: low group

IN: Now this one: O=C1NC(=S)N/C1=C\c1ccc2ncsc2c1
OUT: low group

IN: Now this one: COc1ccc(/C=C2\NC(=O)SC2=O)cc1
OUT: high group

IN: Now this one: COc1ccc(/C=C2\CCOC2=O)cc1
OUT: middle group
